Ref: ChEMBL document CHEMBL3301361

Assay: physchem
Details: octan-1-ol/water, pH 7.4, LogD7.4
Record true whenever logD is at 3 or higher; record false when lower.

-- ask Hello, I need to know if Cc1cc(COC(=O)Nc2ccc(-c3ccccc3)n(CC(=O)NC(C(=O)C(F)(F)F)C(C)C)c2=O)cc(C)n1 (configuration not stated) has measured logD not below 3. Thanks!
-- reply false

-- ask Could you tell me if the measured logD of C[C@H](CO)Nc1nc(SCc2ccccc2)nc2nc(N)sc12 reaches 3 or more?
-- reply true

-- ask Answer whether logD of COc1cc(N2CCN(C(C)=O)CC2)ccc1Nc1ncc(C#N)c(-c2cnc3ccccn23)n1 is greater than or equal to 3.
-- reply false

-- ask Is logD at least 3? Consider Cc1ccc2nc(CCNCCCO)ccc2c1NC(=O)CC12CC3CC(CC(C3)C1)C2
-- reply false

-- ask // inclusive: logD at least 3? input: CCOC(=O)c1cnc2c(N)cccc2c1O
-- reply false

-- ask logD >= 3 for O=S(=O)(c1ccccc1)C1(c2cc(N3CCOCC3)nc(-c3cccc4[nH]ccc34)n2)CC1 ?
-- reply true

-- ask Is the recorded value of logD equal to or greater than 3 for this compound? CNCC[C@@H](Oc1cc(C(F)(F)F)ccc1C#N)c1ccccc1
-- reply false

-- ask hey, is logD for this one >= 3? CC(C)C(NC(=O)Cn1c(-c2cccs2)ncc(NC(=O)OCc2ccccc2)c1=O)C(=O)C(F)(F)F (configuration not stated)
-- reply false

-- ask hey, is logD for this one >= 3? Clc1cccc(-n2nnnc2NCc2ccccc2Oc2ccccn2)c1Cl
-- reply true

-- ask Please tell me: is the compound COc1cc2ncnc(Nc3ccc(OCc4ccccn4)c(C)c3)c2cc1OC at or over 3 in terms of logD?
-- reply true

-- ask Could you tell me if the measured logD of NS(=O)(=O)c1ccc2c(c1)C1C=CCC1C(c1cccc3ccccc13)N2 (configuration not stated) reaches 3 or more?
-- reply false

-- ask Form field: logD at least 3? Entry: COc1cc(N2CCN(CCS(C)(=O)=O)CC2)ccc1Nc1ncc(Cl)c(-c2cnc3ccccn23)n1
-- reply true

-- ask Reported logD reaches at least 3 for FC(F)(F)c1cc(CO[C@H]2CCCN[C@H]2c2ccccc2)cc(C(F)(F)F)c1 ?
-- reply true

-- ask I'd appreciate it if you could say whether Cc1cc(Nc2ccnc(NCc3cc(C4CC4)no3)n2)n[nH]1 has logD at least equal to 3.
-- reply false

-- ask Record Cc1cc(S(=O)(=O)Nc2nc(Nc3ccc(Cl)cc3)n[nH]2)c(S)cc1Cl ; criterion: logD no lower than 3. Met?
-- reply false

-- ask Could you please find out whether NC(=O)C1CCN(CC(=O)Nc2ccc3c(c2)OCO3)CC1 has logD that meets 3 or exceeds it?
-- reply false

-- ask Threshold query (logD >= 3) on CN1C(=O)CC(C)(CCc2cccc(-c3ccccc3)c2)N=C1N (configuration not stated)
-- reply false

-- ask Form field: logD at least 3? Entry: Cc1ccc(NC(=O)c2cccc(C(F)(F)F)c2)cc1NC(=O)c1cccnc1
-- reply true

-- ask Tell me whether logD is at least 3 here: CCCc1c(C(=O)Nc2cc(C)on2)cnn1-c1ccccc1
-- reply true

-- ask Say whether O=C(Cn1cnc2ccccc21)c1ccc(Br)cc1 shows logD of 3 or more.
-- reply true

-- ask Test whether the compound Nc1ccc(S(=O)(=O)N2CCCC2)cc1 records logD of 3 or higher.
-- reply false

-- ask Is logD at least 3? Consider CC(=O)OCCn1c(Sc2nc3cccc(Cl)c3s2)nc2c(N)ncnc21
-- reply true

-- ask Identify whether the reported logD of the following compound is 3 or greater: O=C(COCc1ccncc1)N1CCN(c2ccc(Cl)cc2F)CC1
-- reply false

-- ask Check the entry Cc1nc(N)c2nc(O)n(Cc3ccccc3)c2n1 : does logD equal or exceed 3?
-- reply false

-- ask Does COc1ccc(NC(=O)c2ccnc(N)n2)cc1 have a reported logD of at least 3?
-- reply false

-- ask # bool: logD of CCN(CCN(C)C)S(=O)(=O)c1ccc(-c2cnc(N)c(C(=O)Nc3cccnc3)n2)cc1 >= 3
-- reply false

-- ask Hi, just wondering whether COc1ccc(-c2csc(N(CCCN3CCOCC3)C(=O)c3ccco3)n2)cc1 shows logD of 3 or higher.
-- reply true

-- ask Threshold query (logD >= 3) on CC(=O)c1cc2ccc(O)cc2oc1=O
-- reply false

-- ask Confirm if logD reported for the compound O=C(NC1CC1)c1cc(-c2cccs2)on1 is 3 or above.
-- reply false

-- ask Given Cc1ccc(S(=O)(=O)Nc2c(C(=O)N[C@@H](C)C(C)(C)C)c(C)nn2CC(F)(F)F)cc1 , state whether its logD is at least 3.
-- reply false

-- ask Is reported logD greater than or equal to 3 here: c1ccc(-c2n[nH]cc2-c2ccnc3ccccc23)nc1
-- reply false

-- ask Reported logD at or above 3? COc1cc(N2CCN(C(C)=O)CC2)ccc1Nc1ncc(Cl)c(-c2cnc3cc(F)ccn23)n1
-- reply true

-- ask Reported logD reaches at least 3 for CCCN(CCC)C(=O)c1cccc(C(=O)N[C@@H](Cc2ccccc2)[C@H](O)CNC2Cc3ccccc3C2)c1 ?
-- reply true

-- ask Is the recorded value of logD equal to or greater than 3 for this compound? NC(=O)c1cnc(N[C@H]2CCCNC2)c2cc(-c3ccc(F)cc3)sc12
-- reply false

-- ask Given CC1=NC(C)(c2cccc(-c3cccnc3)c2)N=C1N (configuration not stated) , state whether its logD is at least 3.
-- reply false

-- ask Could you verify whether the entry CCOc1ncc(C)c2c1[C@H](c1ccc(C#N)cc1OC)C(C(N)=O)=C(C)N2 shows logD of no less than 3?
-- reply false

-- ask Is the recorded value of logD equal to or greater than 3 for this compound? O=C(Nc1nc(-c2ccccc2)cs1)c1cccnc1
-- reply true

-- ask Quick check, logD >= 3? COc1cc(C(=O)Nc2ccc(Cl)c(-c3nc4ccccc4[nH]3)c2)cc(OC)c1OC
-- reply true

-- ask Check the entry Cc1cc(Oc2ccc3c(c2)OCO3)nc(Oc2ccc(-n3ccnc3)cc2)n1 : does logD equal or exceed 3?
-- reply true
